// Caco-2 cells Significant efflux records

>  <compound>
CCCCCOC(=O)Nc1nc(=O)n([C@@H]2O[C@H](C)[C@@H](O)[C@H]2O)cc1F [Capecitabine]

>  <Significant efflux>
Yes

$$$$
>  <compound>
O=c1[nH]c(=O)n([C@H]2C[C@H](O)[C@@H](CO)O2)cc1F [Floxuridine, reference compound]

>  <Significant efflux>
No

$$$$
>  <compound>
Nc1ccn([C@@H]2O[C@H](CO)[C@@H](O)C2(F)F)c(=O)n1 [Gemcitabine, reference compound]

>  <Significant efflux>
No

$$$$
>  <compound>
COCCOCCOCCOP(=O)(O)OC[C@H]1O[C@@H](n2cc(F)c(=O)[nH]c2=O)C[C@@H]1O [Floxuridine Mono (mPEG3)]

>  <Significant efflux>
No

$$$$

====

Tested on: K-562
Assay: In vitro cytotoxicity assay (CellTiter-Glo)
Type: cell-based
Conditions: 72 h exposure, CellTiter-Glo
Here the recorded IC50 is given for each entry.

>  <compound>
COCCOCCOCCOP(=O)(O)OC[C@H]1O[C@@H](n2ccc(N)nc2=O)C(F)(F)[C@@H]1O.Cl [Gemcitabine Mono (mPEG3), phosphate hydrochloride]

>  <IC50>
914 nM

$$$$

Please look at the following compound next.
What value of IC50 has been recorded for this entry: COCCOCCOCCOCCOCCOCCOCCOP(=O)(O)OC[C@H]1O[C@@H](n2ccc(N)nc2=O)C(F)(F)[C@@H]1O.Cl [Gemcitabine Mono (mPEG7), phosphate hydrochloride]
1150 nM

====

System: NCI/ADR-RES
Assay: Sulforhodamine B (SRB) growth inhibition assay
Type: cell-based, Human
Details: cells exposed for 24 h, read-out: GI50 values (μM) NCI/ADR-RES
measure-name: GI50 (µM)
Number only, in µM; omit the unit.

>  <compound>
COCCOCCOCCOCCOCCOCCOCCOP(=O)(O)OC[C@H]1O[C@@H](n2ccc(N)nc2=O)C(F)(F)[C@@H]1O.Cl [Gemcitabine Mono (mPEG7), phosphate hydrochloride]

>  <system-under-test>
NCI/ADR-RES

>  <unit-descriptor>
µM

>  <test-result>
2

$$$$

What value of GI50 has been recorded for this entry: COCCOCCOCCOP(=O)(O)OC[C@H]1O[C@@H](n2ccc(N)nc2=O)C(F)(F)[C@@H]1O.Cl [Gemcitabine Mono (mPEG3), phosphate hydrochloride]
1.7

====

System: CCRF-CEM
Test: In vitro cytotoxicity assay (CellTiter-Glo)
Format: cell-based
Conditions: Homo sapiens, 72 h exposure, CellTiter-Glo
measure-name: IC50 (nM)
Number only, in nM; omit the unit.

What value of IC50 has been recorded for this entry: Nc1ccn([C@@H]2O[C@H](CO)[C@@H](O)C2(F)F)c(=O)n1 [Gemcitabine, reference compound]
7

====

Test system: HCT-116
Assay: In vitro cytotoxicity assay (CellTiter-Glo)
Type: cell-based
Conditions: 72 h exposure, CellTiter-Glo
measure-name: IC50
Write down the value, and be sure its unit follows.

What value of IC50 has been recorded for this entry: COCCOCCOCCOP(=O)(O)OC[C@H]1O[C@@H](n2ccc(N)nc2=O)C(F)(F)[C@@H]1O.Cl [Gemcitabine Mono (mPEG3), phosphate hydrochloride]
2.9 nM

What value of IC50 has been recorded for this entry: COCCOCCOCCOCCOCCOCCOCCOP(=O)(O)OC[C@H]1O[C@@H](n2ccc(N)nc2=O)C(F)(F)[C@@H]1O.Cl [Gemcitabine Mono (mPEG7), phosphate hydrochloride]
4 nM

What value of IC50 has been recorded for this entry: "COCCOCCOCCOP(=O)(O)OC[C@H]1O[C@@H](n2cc(F)c(=O)[nH]c2=O)C[C@@H]1O"
56 nM

What value of IC50 has been recorded for this entry: "COCCOCCOCCOCCOCCOCCOCCOP(=O)(O)OC[C@H]1O[C@@H](n2cc(F)c(=O)[nH]c2=O)C[C@@H]1O"
48 nM

====

Experiment: Bi-directional permeability in Caco-2 cells
Conditions: human
measure-name: Papp A→B (×10⁻⁶ cm/s)
Number only, in ×10⁻⁶ cm/s; omit the unit.

What value of Papp A→B has been recorded for this entry: Nc1ccn([C@@H]2O[C@H](CO)[C@@H](O)C2(F)F)c(=O)n1 [Gemcitabine, reference compound]
0.3

====

Assay: Bi-directional permeability in MDCK cells
Details: dog, percent recovery A -> B
measure-name: recovery (%)
Number only, in %; omit the unit.

>  <compound>
CCCCCOC(=O)Nc1nc(=O)n([C@@H]2O[C@H](C)[C@@H](O)[C@H]2O)cc1F

>  <recovery [%]>
104

$$$$

What value of recovery has been recorded for this entry: Nc1ccn([C@@H]2O[C@H](CO)[C@@H](O)C2(F)F)c(=O)n1 [Gemcitabine, reference compound]
96

What value of recovery has been recorded for this entry: O=c1[nH]c(=O)n([C@H]2C[C@H](O)[C@@H](CO)O2)cc1F [Floxuridine, reference compound]
50

====

Test: in vitro
Conditions: human, Caco-2
measure-name: Papp B→A (×10⁻⁶ cm/s)
Number only, in ×10⁻⁶ cm/s; omit the unit.

>  <molecule>
O=c1[nH]c(=O)n([C@H]2C[C@H](O)[C@@H](CO)O2)cc1F [Floxuridine, reference compound]

>  <unit-descriptor>
×10⁻⁶ cm/s

>  <Papp B→A>
1.47

$$$$

What value of Papp B→A has been recorded for this entry: "CCCCCOC(=O)Nc1nc(=O)n([C@@H]2O[C@H](C)[C@@H](O)[C@H]2O)cc1F"
8.71

====

Assay: in vitro
Settings: human
measure-name: recovery

What value of recovery has been recorded for this entry: Nc1ccn([C@@H]2O[C@H](CO)[C@@H](O)C2(F)F)c(=O)n1 [Gemcitabine, reference compound]
100 to 110%

====

Here the recorded IC50 is given for each entry.
Tested on: DLD-1
Experiment: In vitro cytotoxicity assay (CellTiter-Glo)
Format: cell-based
Settings: 72 h exposure, CellTiter-Glo
Number only, in nM; omit the unit.

>  <molecule>
COCCOCCOCCOP(=O)(O)OC[C@H]1O[C@@H](n2ccc(N)nc2=O)C(F)(F)[C@@H]1O.Cl [Gemcitabine Mono (mPEG3), phosphate hydrochloride]

>  <system-under-test>
DLD-1

>  <measure-name>
IC50

>  <test-result>
93

$$$$

What value of IC50 has been recorded for this entry: COCCOCCOCCOCCOCCOCCOCCOP(=O)(O)OC[C@H]1O[C@@H](n2ccc(N)nc2=O)C(F)(F)[C@@H]1O.Cl [Gemcitabine Mono (mPEG7), phosphate hydrochloride]
36

====

Test system: K-562
Experiment: In vitro cytotoxicity assay (CellTiter-Glo)
Assay type: cell-based
Details: Homo sapiens, K562, 72 h exposure, CellTiter-Glo
measure-name: IC50 (nM)
Number only, in nM; omit the unit.

What value of IC50 has been recorded for this entry: Nc1ccn([C@@H]2O[C@H](CO)[C@@H](O)C2(F)F)c(=O)n1 [Gemcitabine, reference compound]
697

====

Assay: Bi-directional permeability in MDCK cells
Details: dog
measure-name: Papp A→B

What value of Papp A→B has been recorded for this entry: Nc1ccn([C@@H]2O[C@H](CO)[C@@H](O)C2(F)F)c(=O)n1 [Gemcitabine, reference compound]
0.17 ×10⁻⁶ cm/s

====

Assay: Bi-directional permeability in Caco-2 cells
Conditions: human, Caco-2, percent recovery A -> B
measure-name: recovery (%)
Number only, in %; omit the unit.

Please review the following examples before continuing.
>  <compound>
Nc1ccn([C@@H]2O[C@H](CO)[C@@H](O)C2(F)F)c(=O)n1 [Gemcitabine, reference compound]

>  <recovery [%]>
90

$$$$
>  <compound>
O=c1[nH]c(=O)n([C@H]2C[C@H](O)[C@@H](CO)O2)cc1F [Floxuridine, reference compound]

>  <recovery [%]>
75

$$$$

Please look at the following compound next.
What value of recovery has been recorded for this entry: "CCCCCOC(=O)Nc1nc(=O)n([C@@H]2O[C@H](C)[C@@H](O)[C@H]2O)cc1F"
110

====

System: DU145
Assay: Sulforhodamine B (SRB) growth inhibition assay
Format: cell-based, Human
Conditions: GI50 of conjugate vs floxuridine
Text: The aim was to determine the GI50 values for PEG-floxuridine conjugates against a panel of cell lines, and based on previous data from Xenograft studies. […]
measure-name: ratio vs flox (GI50) DU145
Form: value (number only, do not type unit).

Please review the following examples before continuing.
>  <entry-smiles>
COCCOCCOCCOP(=O)(OCCOCCOCCOC)OC[C@H]1O[C@@H](n2cc(F)c(=O)[nH]c2=O)C[C@@H]1O

>  <measure-name>
ratio vs flox (GI50) DU145

>  <test-result>
4

$$$$
>  <entry-smiles>
COCCOCCOCCOCCOCCOCCOCCOP(=O)(O)OC[C@H]1O[C@@H](n2cc(F)c(=O)[nH]c2=O)C[C@@H]1O

>  <measure-name>
ratio vs flox (GI50) DU145

>  <test-result>
0.005

$$$$
>  <entry-smiles>
COCCOCCOCCOP(=O)(O)OC[C@H]1O[C@@H](n2cc(F)c(=O)[nH]c2=O)C[C@@H]1O

>  <measure-name>
ratio vs flox (GI50) DU145

>  <test-result>
0.005

$$$$

Please look at the following molecule next.
What value of ratio vs flox (GI50) DU145 has been recorded for this entry: "COCCOCCOCCOCCOCCOCCOCCOP(=O)(OCCOCCOCCOCCOCCOCCOCCOC)OC[C@H]1O[C@@H](n2cc(F)c(=O)[nH]c2=O)C[C@@H]1O"
4
